Target: Fuc(a1-2)[GalNAc(a1-3)]Gal(b1-3)GlcNAc(b1-3)GalNAc
Assay: glycan array binding signal (z-score within array); higher = stronger binding
Conditions: glycan notation: IUPAC condensed, linker removed
Shown is part of a subset that was picked to be rich in the strongest signals.
# label = TRUE if glycan array binding signal (z-score) >= 3 else FALSE

Epa23 (Candida glabrata) (protein) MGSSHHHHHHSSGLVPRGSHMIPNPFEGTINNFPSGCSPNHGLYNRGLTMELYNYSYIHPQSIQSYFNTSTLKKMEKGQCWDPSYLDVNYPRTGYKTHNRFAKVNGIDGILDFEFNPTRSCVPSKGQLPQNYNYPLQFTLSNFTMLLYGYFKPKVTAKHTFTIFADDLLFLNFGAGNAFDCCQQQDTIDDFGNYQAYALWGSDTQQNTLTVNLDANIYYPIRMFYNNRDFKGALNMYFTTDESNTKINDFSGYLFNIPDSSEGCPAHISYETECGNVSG | FALSE
GNAT (Pseudomonas aeruginosa), Q9HV14 (protein) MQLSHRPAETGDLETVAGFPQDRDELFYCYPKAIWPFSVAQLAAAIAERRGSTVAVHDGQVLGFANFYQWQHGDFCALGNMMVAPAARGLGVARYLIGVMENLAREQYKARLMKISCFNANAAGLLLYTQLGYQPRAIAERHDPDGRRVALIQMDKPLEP | TRUE
Pwp3 (Candida glabrata) (protein) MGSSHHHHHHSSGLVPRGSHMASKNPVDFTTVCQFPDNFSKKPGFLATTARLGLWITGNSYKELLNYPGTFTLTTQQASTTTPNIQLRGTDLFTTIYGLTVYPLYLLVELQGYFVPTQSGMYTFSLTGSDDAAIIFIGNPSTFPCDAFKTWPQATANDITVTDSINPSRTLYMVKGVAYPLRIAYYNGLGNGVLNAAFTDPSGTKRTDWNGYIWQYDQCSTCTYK | FALSE
HA-00510 (Pseudomonas aeruginosa), Q02V39_PSEAB (protein) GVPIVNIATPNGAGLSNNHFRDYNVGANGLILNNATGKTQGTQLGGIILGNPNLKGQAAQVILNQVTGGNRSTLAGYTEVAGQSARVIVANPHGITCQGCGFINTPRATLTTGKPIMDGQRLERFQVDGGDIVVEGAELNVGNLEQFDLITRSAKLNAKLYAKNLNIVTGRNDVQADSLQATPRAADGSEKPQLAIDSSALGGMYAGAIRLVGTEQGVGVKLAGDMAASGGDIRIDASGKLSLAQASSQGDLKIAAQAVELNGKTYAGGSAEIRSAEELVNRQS | FALSE
PGP3 (Chlamydia trachomatis), P0CE18 (protein) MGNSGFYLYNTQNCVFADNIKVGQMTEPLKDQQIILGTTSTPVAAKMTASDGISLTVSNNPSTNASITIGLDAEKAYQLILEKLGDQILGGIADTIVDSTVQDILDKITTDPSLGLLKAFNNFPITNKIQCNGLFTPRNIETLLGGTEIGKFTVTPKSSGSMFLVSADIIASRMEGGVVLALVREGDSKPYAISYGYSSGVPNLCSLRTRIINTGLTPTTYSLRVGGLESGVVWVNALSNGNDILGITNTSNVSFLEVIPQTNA | FALSE
SJCP1084 (Schistosoma japonicum) (protein) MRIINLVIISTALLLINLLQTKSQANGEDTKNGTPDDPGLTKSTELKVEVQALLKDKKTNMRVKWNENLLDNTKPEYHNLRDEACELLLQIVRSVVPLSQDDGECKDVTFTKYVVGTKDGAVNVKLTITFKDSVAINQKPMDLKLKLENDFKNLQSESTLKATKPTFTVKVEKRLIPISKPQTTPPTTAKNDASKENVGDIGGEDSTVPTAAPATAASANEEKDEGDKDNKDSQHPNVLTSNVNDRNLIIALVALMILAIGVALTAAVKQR | FALSE
